System: SN12C renal
Assay: NCI tumour cell line growth inhibition, 48 h; in the data active = GI50 below about 0.43 µM; inactive = the rest
Labels: Yes = active, No = inactive

COMPOUND	ANSWER_LABEL
COc1ncc(Nc2ncc([C@@H](C)N3CCN(S(C)(=O)=O)CC3)cc2-c2nc(C)nc(N)n2)cc1F	Yes
CC1=C(c2ccccc2)C(O)(c2ccccc2)C(C)C1=O (centres undefined)	No
CCC(C)[C@H](NC(=O)Nc1cc(C(F)(F)F)cc(C(F)(F)F)c1)C(=O)N[C@@H](Cc1cn(C)cn1)C(=O)OC (some centres undefined)	No
COc1ccc(CN2c3ccccc3Sc3ccccc32)c(C(F)(F)F)c1	No
COc1cccc(CC(C)=C(c2ccc(OCCN3CCCCC3)cc2)c2ccc(OCCN3CCCCC3)cc2)c1	No
O=C(N/N=C\c1ccc(N(CCCl)CCCl)cc1[N+](=O)[O-])c1cccnc1	No
CC(=O)[O-].Cn1ccnc1CNCc1nccn1C.[Cu+2].[O-][Cl+3]([O-])([O-])[O-]	No
NC(=O)c1cc([N+](=O)[O-])c(Cl)c([N+](=O)[O-])c1Cl	No
CNC(=O)c1c(NC(=O)c2ccc(C(C)(C)C)cc2)sc2c1CCC(=O)C2	Yes
